Target: Somatostatin receptor type 5 (Homo sapiens)
Sequence (P35346 whole entry): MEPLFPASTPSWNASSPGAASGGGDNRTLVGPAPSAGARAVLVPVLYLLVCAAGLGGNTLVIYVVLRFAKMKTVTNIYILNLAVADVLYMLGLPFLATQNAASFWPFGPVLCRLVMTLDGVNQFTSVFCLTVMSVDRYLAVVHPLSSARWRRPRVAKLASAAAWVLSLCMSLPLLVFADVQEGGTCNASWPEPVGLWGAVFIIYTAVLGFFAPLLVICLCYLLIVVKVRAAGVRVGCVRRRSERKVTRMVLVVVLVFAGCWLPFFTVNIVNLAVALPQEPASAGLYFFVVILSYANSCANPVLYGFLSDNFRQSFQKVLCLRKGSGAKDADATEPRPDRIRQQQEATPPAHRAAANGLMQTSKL
pIC50: −log10 of the molar value.
quantity: pIC50

Let me know recorded pIC50 for CC(C)NCc1ccc(C[C@@H]2NC(=O)[C@H](N(C)C(=O)c3ccc4ccccc4c3)NC(=O)[C@H](Cc3ccccc3)NC(=O)[C@H](Cc3ccccc3)NC(=O)[C@H](CCCCN)NC(=O)[C@@H](N)CSSC[C@@H](C(=O)O)NC(=O)[C@H](CO)NC(=O)[C@H]([C@@H](C)O)NC(=O)[C@H](Cc3ccc(O)c(I)c3)NC(=O)[C@H]([C@@H](C)O)NC2=O)cc1 , thanks.
< 6.00

---

Biological target: Somatostatin receptor type 3 (Homo sapiens, UniProt P32745)
Sequence (P32745 whole entry): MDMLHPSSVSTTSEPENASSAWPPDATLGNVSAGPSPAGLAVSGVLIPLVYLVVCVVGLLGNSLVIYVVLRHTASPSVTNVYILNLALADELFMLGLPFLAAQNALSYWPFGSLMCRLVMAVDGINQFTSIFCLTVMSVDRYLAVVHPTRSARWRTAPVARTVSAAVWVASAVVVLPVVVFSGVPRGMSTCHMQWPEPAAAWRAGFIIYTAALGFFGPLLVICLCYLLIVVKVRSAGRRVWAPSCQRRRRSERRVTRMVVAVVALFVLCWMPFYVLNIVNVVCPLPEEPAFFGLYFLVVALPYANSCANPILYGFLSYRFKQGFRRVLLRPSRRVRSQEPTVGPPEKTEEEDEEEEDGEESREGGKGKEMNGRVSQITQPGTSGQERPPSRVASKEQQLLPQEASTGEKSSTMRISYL
pIC50: −log10 of the molar value.
Each item that follows carries a reported pIC50.

smilesrepresentation=CC(C)NCc1ccc(C[C@@H]2NC(=O)[C@@H](Cc3c[nH]c4ccccc34)NC(=O)[C@H](Cc3ccccc3)NC(=O)[C@H](Cc3ccccc3)NC(=O)[C@H](CCCCN)NC(=O)[C@@H](N)CSSC[C@@H](C(=O)N[C@@H](CCCCN)C(=O)N[C@@H](CCCCN)C(=O)N[C@@H](CCCCN)C(=O)O)N(C)C(=O)[C@H](CO)NC(=O)[C@H]([C@@H](C)O)NC(=O)[C@H](Cc3ccccc3)NC(=O)[C@H]([C@@H](C)O)NC2=O)cc1 quantity=pIC50 observedmeasurement="< 6.00"

State pIC50 on Somatostatin receptor type 3 (Homo sapiens, UniProt P32745). Entry: CC(C)NCc1ccc(C[C@@H]2NC(=O)[C@@H](Cc3ccc4ccccc4c3)NC(=O)[C@H](Cc3ccccc3)NC(=O)[C@H](Cc3ccccc3)N(C)C(=O)[C@H](CCCCN)NC(=O)[C@@H](N)CSSC[C@@H](C(=O)O)NC(=O)[C@H](CO)NC(=O)[C@H]([C@@H](C)O)NC(=O)[C@H](Cc3ccccc3)NC(=O)[C@H]([C@@H](C)O)NC2=O)cc1
< 6.00

---

Target: UniProt P30872
Sequence (P30872 whole entry): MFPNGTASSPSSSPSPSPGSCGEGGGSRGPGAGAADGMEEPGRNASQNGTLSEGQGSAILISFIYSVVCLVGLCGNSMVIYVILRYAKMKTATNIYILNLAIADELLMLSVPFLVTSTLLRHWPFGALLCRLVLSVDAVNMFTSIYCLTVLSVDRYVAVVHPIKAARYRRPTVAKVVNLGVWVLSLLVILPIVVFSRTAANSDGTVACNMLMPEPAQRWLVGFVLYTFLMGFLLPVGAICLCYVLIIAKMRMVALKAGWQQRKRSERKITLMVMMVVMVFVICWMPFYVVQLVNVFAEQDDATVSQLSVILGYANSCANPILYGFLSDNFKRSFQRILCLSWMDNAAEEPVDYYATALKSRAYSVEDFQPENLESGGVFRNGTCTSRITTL
Positions of bridges follow the written chain, without caps; N, C: chain ends. Non-standard residues stand in square brackets, D forms with d. Residues, ends and D or L forms follow the SMILES beside them. NMePhe(4-CH2NHiPr) = CN[C@@H](Cc1ccc(CNC(C)C)cc1)C(=O)O; Phe(4-CH2NHiPr) = CC(C)NCc1ccc(C[C@H](N)C(=O)O)cc1; d2Nal = N[C@H](Cc1ccc2ccccc2c1)C(=O)O
quantity: IC50

Return reported IC50 for target or system UniProt P30872, item CC(C)NCc1ccc(C[C@@H]2NC(=O)[C@@H](Cc3ccc4ccccc4c3)N(C)C(=O)[C@H](Cc3ccccc3)NC(=O)[C@H](Cc3ccccc3)NC(=O)[C@H](CCCCN)NC(=O)[C@@H](N)CSSC[C@@H](C(=O)O)NC(=O)[C@H](CO)NC(=O)[C@H]([C@@H](C)O)NC(=O)[C@H](Cc3ccccc3)NC(=O)[C@H]([C@@H](C)O)NC2=O)cc1 .
325 nM

Please respond with reported IC50 (system UniProt P30872) for CC(C)NCc1ccc(C[C@@H]2NC(=O)[C@@H](Cc3ccc4ccccc4c3)NC(=O)[C@H](Cc3ccccc3)NC(=O)[C@H](Cc3ccccc3)NC(=O)[C@H](CCCCN)NC(=O)[C@@H](N)CSSC[C@@H](C(=O)O)NC(=O)[C@H](CO)NC(=O)[C@H]([C@@H](C)O)NC(=O)[C@H](Cc3ccccc3)NC(=O)[C@H]([C@@H](C)O)NC2=O)cc1 (H-CKFF[d2Nal][Phe(4-CH2NHiPr)]TFTSC-OH; disulfide 1-11) .
248 nM

Enter IC50 (test system UniProt P30872) for CC(C)NCc1ccc(C[C@H]2C(=O)N[C@@H]([C@@H](C)O)C(=O)N[C@@H](Cc3ccccc3)C(=O)N[C@@H]([C@@H](C)O)C(=O)N[C@@H](CO)C(=O)N[C@H](C(=O)O)CSSC[C@H](NC(=O)[C@@H](N)Cc3ccc(O)cc3)C(=O)N[C@@H](CCCCN)C(=O)N[C@@H](Cc3ccccc3)C(=O)N[C@@H](Cc3ccccc3)C(=O)N[C@H](Cc3c[nH]c4ccccc34)C(=O)N2C)cc1 (H-YCKFF[dW][NMePhe(4-CH2NHiPr)]TFTSC-OH; disulfide 2-12)
16 nM

Value source: ChEMBL document CHEMBL1145176
